Assay: protein stability index of a GFP-peptide fusion (GPS, HEK-293T) (PSI 1-6); higher = more stable;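 note: 24-mer peptide tiles fused after GFP, lentivirally expressed, FACS-sorted into six equal bins by GFP/DsRed ratio, decoded by Illumina sequencing, PSI is the read-weighted mean bin number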
Details: treatment: DMSO; c terminus: a fixed tail appended
Quick rule: protein stability index of at least 3 means y, below that means n.

Below, 5 sequences whose answers are already recorded.
{"SEQUENCE": "LLLGLKDREGYTSFWNDCISSGLR [GOLPH3]", "CAT": "n"}
{"SEQUENCE": "GISALVEIPKNCVVAAVGKELIIF [WDR41]", "CAT": "n"}
{"SEQUENCE": "VIKENDPSGFLQISDALIRRVHLT [TRIM9]", "CAT": "n"}
{"SEQUENCE": "SSSSGVLMVGPNFRVGKKIGCGNF [CSNK1G3]", "CAT": "n"}
{"SEQUENCE": "KTSSSSKAGFTASPFTNLLNGSSQ [CDC14A]", "CAT": "y"}

Query: Check if protein stability index >= 3 (inclusive). Item: MDLSERQEVSSVRSLSSTGSLPSH [DLC1]
Response: y

Query: Check if protein stability index >= 3 (inclusive). Item: DAGPMVVHCSAGVGRTGCFIVIDA [PTPRD]
Response: n

Query: Check if protein stability index >= 3 (inclusive). Item: RKILVLDLDETLIHSHHDGVLRPT [CTDNEP1]
Response: n

Query: Check if protein stability index >= 3 (inclusive). Item: DLSGIQTSDAAFLTQWKDSLVSLV [ZER1]
Response: n

Query: Check if protein stability index >= 3 (inclusive). Item: ELKKLKNLEGNELQRHADEFLLDL [FUT8]
Response: y

Query: Check if protein stability index >= 3 (inclusive). Item: HLRATEKMKTRELHRESSNFDSIY [HDAC6]
Response: y

Query: Check if protein stability index >= 3 (inclusive). Item: VKETGYFFIYGQVLYTDKTYAMGH [TNFSF13B]
Response: n

Query: Check if protein stability index >= 3 (inclusive). Item: IHGENIICEATQIIDYLEQTFLDE [GDAP1]
Response: n

Query: Check if protein stability index >= 3 (inclusive). Item: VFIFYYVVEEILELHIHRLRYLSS [PKD2L1]
Response: n

Query: Check if protein stability index >= 3 (inclusive). Item: QGFSYSKSNGRGGSQAGGSGSAGQ [MYOZ1]
Response: y

Query: Check if protein stability index >= 3 (inclusive). Item: "HTEASAQRSHMGKLKEPQPQDHKP"
Response: y

Query: Check if protein stability index >= 3 (inclusive). Item: HVEVARLLLENGAGINTHSNEFKE [ANKRD17]
Response: y

Query: Check if protein stability index >= 3 (inclusive). Item: EQERRLSEARLSQRDLSPTAEDAE [FCHSD1]
Response: y
